# System: NALL-1
# ASSAY_SUMMARY: In vitro toxicity which caused 50% decrease in [14C]- leucine incorporation by the NALL-1 cells in culture.
# Assay type: cell-based
# CONDITION_INFO: human, read-out: ID50 (the source's name)
READOUT_NAME: CC50 (µM)

{"SMILES_STR": "Nc1nc(Br)nc2c1ncn2[C@@H]1C[C@@H](O)[C@H](CO)O1", "READOUT_NAME": "CC50", "MEASURED_RESULT": 12}

---

# Test system: B-95-8 cell line
# ASSAY_SUMMARY: In vitro toxicity which caused 50% decrease in [14C]- leucine incorporation by the B-95-8 cells in culture.
# Assay type: functional, Callitrichidae
# CONDITION_INFO: Saguinus oedipus, read-out: ID50 (the source's name)
pIC50: −log10 of the molar value.

{"SMILES_STR": "CSc1nc(N(C)C)c2ncn([C@@H]3C[C@@H](O)[C@H](CO)O3)c2n1", "RESULT_MODIFIER": "=", "pIC50": 3.94}
{"SMILES_STR": "CNc1nc(Br)nc2c1ncn2[C@@H]1C[C@@H](O)[C@H](CO)O1", "RESULT_MODIFIER": "=", "pIC50": 3.60}
{"SMILES_STR": "Nc1nc(Br)nc2c1ncn2[C@@H]1C[C@@H](O)[C@H](CO)O1", "RESULT_MODIFIER": "=", "pIC50": 5.22}
{"SMILES_STR": "CSc1nc(N)c2ncn([C@@H]3C[C@@H](O)[C@H](CO)O3)c2n1", "RESULT_MODIFIER": "<", "pIC50": 3.52}
{"SMILES_STR": "CN(C)c1nc(Br)nc2c1ncn2[C@@H]1C[C@@H](O)[C@H](CO)O1", "RESULT_MODIFIER": "<", "pIC50": 3.52}

meta.source: ChEMBL document CHEMBL1124795
